# target_or_test_system: Aromatase (Homo sapiens, UniProt P11511)
# Sequence (P11511 whole entry): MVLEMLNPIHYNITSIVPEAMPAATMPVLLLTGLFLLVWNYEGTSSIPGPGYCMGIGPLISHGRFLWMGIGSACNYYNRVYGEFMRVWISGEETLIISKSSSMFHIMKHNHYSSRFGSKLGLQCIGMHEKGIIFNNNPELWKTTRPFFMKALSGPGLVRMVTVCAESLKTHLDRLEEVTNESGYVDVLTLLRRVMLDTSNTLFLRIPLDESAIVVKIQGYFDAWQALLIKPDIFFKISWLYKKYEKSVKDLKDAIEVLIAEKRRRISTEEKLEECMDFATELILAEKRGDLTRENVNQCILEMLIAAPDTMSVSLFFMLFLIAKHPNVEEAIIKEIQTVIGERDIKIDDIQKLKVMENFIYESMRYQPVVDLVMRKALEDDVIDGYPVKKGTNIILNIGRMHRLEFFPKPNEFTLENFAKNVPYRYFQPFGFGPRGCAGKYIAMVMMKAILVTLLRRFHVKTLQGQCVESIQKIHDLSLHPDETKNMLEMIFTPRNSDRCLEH
# test_details: Inhibition of recombinant human aromatase preincubated for 10 mins followed by substrate and beta-NADP+ addition and measured for 60 mins by fluorescence based assay
readout_label: IC50 (nM)

These recorded examples may help you get a feel for the data.
1. CCCCCOc1ccc(C(=O)c2ccc(Cn3ccnc3)cc2)cc1: 1300
2. CCCCCOc1ccc(C(=O)c2cccc(Cn3ccnc3)c2)cc1: 42
3. COc1ccc(C(=O)c2cccc(Cn3ccnc3)c2)cc1: 13

a = CCC#CCOc1ccc(C(=O)c2ccc(Cn3ccnc3)cc2)cc1
b = O=C(c1ccc(O)cc1)c1cccc(Cn2ccnc2)c1
Q. a or b : whose IC50 is greater? // respond with label for picked entry
A. a

a = C#CCOc1ccc(C(=O)c2cccc(Cn3ccnc3)c2)cc1
b = CCC#CCOc1ccc(C(=O)c2cccc(Cn3ccnc3)c2)cc1
Q. a or b : whose IC50 is greater? // respond with label for picked entry
A. a

1 = CCCOc1ccc(C(=O)c2ccc(Cn3ccnc3)cc2)cc1
2 = CCCOc1ccc(C(=O)c2cccc(Cn3ccnc3)c2)cc1
Q. 1 or 2 : whose IC50 is greater? // respond with label for picked entry
A. 1
(1: 374 nM, 2: 2 nM)
